testedSystem: T1, recombinant human IL-6 (human, UniProt P05231 30-212)
T1 construct: Bought protein
T1 sequence (P05231 30-212 limits assumed): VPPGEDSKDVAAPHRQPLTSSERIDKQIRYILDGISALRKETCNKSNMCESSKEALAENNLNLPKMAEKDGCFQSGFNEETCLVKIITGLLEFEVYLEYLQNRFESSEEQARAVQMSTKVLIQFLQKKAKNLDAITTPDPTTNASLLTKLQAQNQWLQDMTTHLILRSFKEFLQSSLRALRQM
assayProtocol: SPR Biacore, supernatant Ab on Protein A chip, IL-6 analyte, 25 C
Collected koff values appear next to each entry.
measuredEndpoint: koff (s⁻¹)

INSERT INTO measurements (binder, quantitativeresult) VALUES
  ('anti-IL-6 antibody, light chain L53W (heavy chain WT) (antibody, V domains shown, See note of m2; also called WT / L53W) VH: EVQLVESGGGLVQPGGSLRLSCAASGFTFSPFAMSWVRQAPGKGLEWVAKISPGGSWTYYSDTVTGRFTFSLDTSKSTAYLQMNSLRAEDTAVYYCARQLWGYYALDIWGQGTLVTVSS VL: DIQLTQSPSSLSASVGDRVTITCSASISVSYMYWYQQKPGKAPKLLIYDMSNWASGVPSRFSGSGSGTDFTLTISSLQPEDFATYYCMQWSGYPYTFGQGTKVEIK', '6.14e-06'),
  ('anti-IL-6 antibody, heavy chain variant I (M34I, G66D, I108V) / light chain variant IV (M32L, M50A, N52S, M88Q) (antibody, V domains shown, See note of m39; also called M34I, G66D, I108V/ M32L, M50A, N52S, M88Q; I/IV) VH: EVQLVESGGGLVQPGGSLRLSCAASGFTFSPFAISWVRQAPGKGLEWVAKISPGGSWTYYSDTVTDRFTFSLDTSKSTAYLQMNSLRAEDTAVYYCARQLWGYYALDVWGQGTLVTVSS VL: DIQLTQSPSSLSASVGDRVTITCSASISVSYLYWYQQKPGKAPKLLIYDASSLASGVPSRFSGSGSGTDFTLTISSLQPEDFATYYCQQWSGYPYTFGQGTKVEIK', 0.000214),
  ('anti-IL-6 antibody, light chain I47V (heavy chain WT) (antibody, V domains shown, See note of m2; also called WT / 147V) VH: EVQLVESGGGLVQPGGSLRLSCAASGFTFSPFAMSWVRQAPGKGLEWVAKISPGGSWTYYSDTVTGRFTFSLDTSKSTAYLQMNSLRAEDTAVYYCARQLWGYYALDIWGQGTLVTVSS VL: DIQLTQSPSSLSASVGDRVTITCSASISVSYMYWYQQKPGKAPKLLVYDMSNLASGVPSRFSGSGSGTDFTLTISSLQPEDFATYYCMQWSGYPYTFGQGTKVEIK', 0.000195),
  ('anti-IL-6 antibody, light chain Y48W (heavy chain WT) (antibody, V domains shown, See note of m2; also called WT / Y48W) VH: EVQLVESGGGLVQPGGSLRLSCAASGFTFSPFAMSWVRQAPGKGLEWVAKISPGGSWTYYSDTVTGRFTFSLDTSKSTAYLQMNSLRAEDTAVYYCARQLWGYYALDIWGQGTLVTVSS VL: DIQLTQSPSSLSASVGDRVTITCSASISVSYMYWYQQKPGKAPKLLIWDMSNLASGVPSRFSGSGSGTDFTLTISSLQPEDFATYYCMQWSGYPYTFGQGTKVEIK', 0.000123),
  ('anti-IL-6 antibody, light chain Y31F (heavy chain WT) (antibody, V domains shown, See note of m2; also called WT / Y31F) VH: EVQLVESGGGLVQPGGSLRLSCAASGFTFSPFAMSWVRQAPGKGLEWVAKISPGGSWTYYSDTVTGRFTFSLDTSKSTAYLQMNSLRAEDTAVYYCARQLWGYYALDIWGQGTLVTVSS VL: DIQLTQSPSSLSASVGDRVTITCSASISVSFMYWYQQKPGKAPKLLIYDMSNLASGVPSRFSGSGSGTDFTLTISSLQPEDFATYYCMQWSGYPYTFGQGTKVEIK', 0.000138),
  ('anti-IL-6 antibody, heavy chain variant II (M34W, G66D, I108V) / light chain variant IV (M32L, M50A, N52S, M88Q) (antibody, V domains shown, See note of m39; also called M34W, G66D, I108V/ M32L, M50A, N52S, M88Q; II/IV) VH: EVQLVESGGGLVQPGGSLRLSCAASGFTFSPFAWSWVRQAPGKGLEWVAKISPGGSWTYYSDTVTDRFTFSLDTSKSTAYLQMNSLRAEDTAVYYCARQLWGYYALDVWGQGTLVTVSS VL: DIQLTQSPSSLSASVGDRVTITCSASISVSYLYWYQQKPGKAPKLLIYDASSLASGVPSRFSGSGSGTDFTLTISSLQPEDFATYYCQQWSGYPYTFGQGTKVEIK', 0.00117),
  ('anti-IL-6 antibody, light chain S51D (heavy chain WT) (antibody, V domains shown, See note of m2; also called WT / S51D) VH: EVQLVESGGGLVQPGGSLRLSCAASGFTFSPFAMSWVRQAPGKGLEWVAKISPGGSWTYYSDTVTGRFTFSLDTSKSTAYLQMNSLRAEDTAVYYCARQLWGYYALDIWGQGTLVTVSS VL: DIQLTQSPSSLSASVGDRVTITCSASISVSYMYWYQQKPGKAPKLLIYDMDNLASGVPSRFSGSGSGTDFTLTISSLQPEDFATYYCMQWSGYPYTFGQGTKVEIK', 0.000216),
  ('anti-IL-6 antibody, heavy chain variant II (M34W, G66D, I108V) / light chain variant III (M32L, M50D, N52S, M88Q) (antibody, V domains shown, See note of m39; also called M34W, G66D, I108V/ M32L, M50D, N52S, M88Q; II/III) VH: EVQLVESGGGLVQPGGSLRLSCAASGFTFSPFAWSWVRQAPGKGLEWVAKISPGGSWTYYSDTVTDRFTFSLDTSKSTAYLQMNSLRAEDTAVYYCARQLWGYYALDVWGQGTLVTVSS VL: DIQLTQSPSSLSASVGDRVTITCSASISVSYLYWYQQKPGKAPKLLIYDDSSLASGVPSRFSGSGSGTDFTLTISSLQPEDFATYYCQQWSGYPYTFGQGTKVEIK', 0.000173),
  ('anti-IL-6 antibody, light chain A54Y (heavy chain WT) (antibody, V domains shown, See note of m2; also called WT / A54Y) VH: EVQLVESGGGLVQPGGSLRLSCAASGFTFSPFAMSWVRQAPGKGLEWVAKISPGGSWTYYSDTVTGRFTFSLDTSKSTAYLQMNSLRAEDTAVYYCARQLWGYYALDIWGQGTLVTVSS VL: DIQLTQSPSSLSASVGDRVTITCSASISVSYMYWYQQKPGKAPKLLIYDMSNLYSGVPSRFSGSGSGTDFTLTISSLQPEDFATYYCMQWSGYPYTFGQGTKVEIK', 0.000109),
  ('anti-IL-6 antibody, light chain Y31G (heavy chain WT) (antibody, V domains shown, See note of m2; also called WT / Y31G) VH: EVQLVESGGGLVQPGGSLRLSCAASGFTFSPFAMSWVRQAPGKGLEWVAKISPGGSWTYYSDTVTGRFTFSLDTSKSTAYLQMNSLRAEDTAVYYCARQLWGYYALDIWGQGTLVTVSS VL: DIQLTQSPSSLSASVGDRVTITCSASISVSGMYWYQQKPGKAPKLLIYDMSNLASGVPSRFSGSGSGTDFTLTISSLQPEDFATYYCMQWSGYPYTFGQGTKVEIK', 0.000203);

These data points were gathered from patent US20240209076A1.
